- Test system: SNB-75 CNS
- measurementDescription: NCI-60 one-dose screen, 48 h
- measurementParameters: 10 µM unless noted
Compounds without any hit were thinned out: in the full panel of roughly 83,000, 20% have a hit. Active and inactive are the calls of the source. Rule for the calls: active = growth percent below 10; inactive = the rest.
Answer with one of the outcomes active, inactive

The examples below pair each entry with its known result.
compound	groupLabel
CCOC(=O)c1c2c(n3ccc(NC(=O)CCN4CCOCC4)cc13)C(=O)c1ncccc1C2=O	inactive
Nc1cccc(NC(=O)C(=O)Nc2cccc(N)c2)c1	inactive
CC(=O)/C(=C/c1cccc(Cl)c1)C(=O)c1ccccc1	inactive
COc1ccccc1-c1ccc2c(N)c(C(=O)c3ccc4c(c3)OCO4)sc2n1	inactive
COc1cccc2c1C(=O)c1c(O)c3c(c(O)c1C2=O)C[C@@](O)(/C(C)=N/NC(=O)c1ccc(Cl)cc1)C[C@@H]3OC1CC(N)C(O)C(C)O1 (stereo not given in full)	active
CC(C)[C@H]1COC(=O)N1[C@@H]1C(=O)N([C@@H](CCC(=O)N2CCN(C3CCCC3)CC2)C(=O)N[C@@H]2CCCc3ccccc32)[C@@H]1/C=C/c1cccc(Br)c1	inactive
Oc1ccccc1N=Cc1c(O)ccc2ccccc12	inactive
COc1ccc(-c2cn3c(-c4ccc(OC)cc4)cnc3c(Oc3ccc4c(C)cc(=O)oc4c3)n2)cc1	inactive

[Q] Test call for this compound, please: `O=C1NC(=O)C(CC(=O)n2c(-c3ccccc3)nc3ccccc32)C(=O)N1`
[A] inactive

[Q] Test call for this compound, please: `c1c2c(cc3c1OCO3)Cc1cc3c(cc1Cc1cc4c(cc1C2)OCO4)OCO3`
[A] inactive

[Q] Test call for this compound, please: `CN1CCN(Cc2ccc(NC(=O)c3[nH]ncc3Nc3ccnc4ccsc34)cc2)CC1`
[A] inactive

[Q] Test call for this compound, please: `N=c1c2ccccc2nc2n1CCCCC2`
[A] inactive

[Q] Test call for this compound, please: COc1cc(C2C(C(=O)c3cccs3)=C(O)C(=O)N2CCN2CCOCC2)cc(OC)c1OC (stereo not given)
[A] inactive

[Q] Test call for this compound, please: `O=C1C(Cl)=C(Cl)C(=O)c2c1nc1n2CCCC1`
[A] inactive

[Q] Test call for this compound, please: `CCCC(=O)Oc1ccc(/C(=C(/CC)Cc2ccccc2)c2ccc(OCCN3CCCC3)cc2)cc1`
[A] inactive

---

- Tested on: MDA-MB-231 breast
- measurementDescription: NCI-60 one-dose screen, 48 h
- measurementParameters: 10 µM unless noted
About 83,000 compounds went through this panel and 20% of them were active in at least one assay; those are over-represented in the sample as a whole. Calls of active or inactive are those of the source. Rule for the calls: active = growth percent below 10; inactive = the rest.
Answer with one of the outcomes Yes for active, No for inactive

>>> df
                                 smilestext  grouplabel
0  O=C1/C(=C/c2ccc(Cl)c(Cl)c2)CN(C(=O)CCN2CCC(=NO)CC2)C/C1=C\c1ccc(Cl)c(Cl)c1         Yes

[Q] Test call for this molecule, please: `Nc1cccc(-c2nc3sccn3c2-c2ccnc(NCCCNS(=O)(=O)c3ccc(C(F)(F)F)cc3)n2)c1`
[A] No

[Q] Test call for this molecule, please: `CN(C)c1ccc(/C=C(\C#N)c2nc3ccccc3s2)cc1`
[A] No

[Q] Test call for this molecule, please: `COc1cc(/C=N\NC(=O)CN2CCN(c3cc4c(cc3F)c(=O)c(C(=O)N/N=C/c3ccc(O)c(OC)c3)cn4C3CC3)CC2)ccc1O`
[A] No

---

- System: SF-539 CNS
- measurementDescription: NCI-60 one-dose screen, 48 h (100 = growth as untreated, 0 = no growth, -100 = all killed)
- measurementParameters: 10 µM unless noted
This is part of a sample that, as a whole, favours compounds with a hit. Of some 83,000 tested, about 20% had one in any assay.
Field: growth. Provide a value for each of the molecules that follow.
Answers are plain numbers, in %.

Example entries begin here.
>>> df
                                   molecule  unitssymbol  resultnumber
0    CN(C)c1ccc(/C=C(\C#N)c2nc3ccccc3s2)cc1            %           100
1  O=C(/C=C/c1ccc(Cl)cc1)c1ccc(O)c(CN2CCN(c3cc4c(cc3F)c(=O)c(C(=O)O)cn4C3CC3)CC2)c1            %          53.5
2  CCN(CC)CCCC(C)Nc1ccnc2c(OC)cccc12 (stereo unspecified)            %           116
3     Oc1ccc(Nc2nccc(-c3ccc4ccccc4c3)n2)cc1            %            37
4                 CC#Cc1nc2ccccc2c(=O)[nH]1            %          35.6

[Q] System SF-539 CNS. Read-out growth. Item CN1Cc2c(cc(CN3CCCCC3)n2C)C(c2ccc(Br)cc2)C1 (stereo unspecified) . Report value.
[A] 76.1

---

- Tested on: MALME-3M melanoma
- measurementDescription: NCI-60 one-dose screen, 48 h
- measurementParameters: 10 µM unless noted
This is part of a sample that, as a whole, favours compounds with a hit. Of some 83,000 tested, about 20% had one in any assay. Calls of active or inactive are those of the source. How the source made its calls: active means growth percent below 10; inactive means the rest.
Answer with one of the outcomes y = active, n = inactive

>>> df
                                 smilestext  grouplabel
0  C/C(=C(/c1ccc(O)cc1)c1ccc(OCCN2CCCC2)cc1)c1ccccc1           y
1            O=c1cc(-c2ccccc2)[nH]c2ccccc12           n
2  Clc1cccc(Nc2nc(Nc3cnc4ccccc4c3)c3[nH]cnc3n2)c1           n
3  O=C(CN1CCN(c2cc3c(cc2F)c(=O)c(C(=O)N/N=C/c2ccccc2)cn3C2CC2)CC1)N/N=C\c1ccccc1           n
4  CCN(CC)Cc1cc(Nc2c3ccc(Cl)cc3nc3c(C)cccc23)ccc1O           y
5  O=C1/C(=C/c2ccc(Cl)c(Cl)c2)CN(C(=O)CCN2CCC(=NO)CC2)C/C1=C\c1ccc(Cl)c(Cl)c1           y

[Q] Test call for this molecule, please: `COc1ccc(-c2cc(/C=C3\C(=O)Nc4ccc(Cl)cc43)[nH]n2)cc1`
[A] n

[Q] Test call for this molecule, please: `COc1c(Cl)cc(Cl)cc1Cl`
[A] n

[Q] Test call for this molecule, please: `CCOC(=O)CC(=O)c1c(C)cc(C)cc1C`
[A] n

[Q] Test call for this molecule, please: `CCN(C(=O)CN1CCN(c2cc3c(cc2F)c(=O)c(C(=O)O)cn3C2CC2)CC1)c1nc(-c2ccc(OC)cc2)cs1`
[A] n

---

- System: M14 melanoma
- measurementDescription: NCI-60 one-dose screen, 48 h
- measurementParameters: 10 µM unless noted
This is part of a sample that, as a whole, favours compounds with a hit. Of some 83,000 tested, about 20% had one in any assay. Calls of active or inactive are those of the source. The calls were made as follows: active = growth percent below 10; inactive = the rest.
Answer with one of the outcomes true (1) for active, false (0) for inactive

compound	groupLabel
COc1cccc(-c2nc3sccn3c2-c2ccnc(NCCCNS(=O)(=O)c3ccccc3)c2)c1	false (0)
O=C1c2cc3c(cc2-c2c1c1cc(F)c(F)cc1c(=O)n2C[C@H](O)CO)OCO3	true (1)
CC(=O)C1=C(O)C=C2Oc3c(C(=O)/C=C/c4cc(Cl)cc(Cl)c4)c(O)c(C)c(O)c3[C@]2(C)C1=O	true (1)

[Q] Test call for this compound, please: `CCCCCCCCOC(=O)CC[C@@H](C)[C@H]1CC[C@H]2[C@@H]3[C@H](OC(=O)CCN)C[C@@H]4C[C@H](OC(=O)CCN)CC[C@]4(C)[C@H]3C[C@H](OC(=O)CCN)[C@]12C`
[A] false (0)

[Q] Test call for this compound, please: CCOC(=O)C12CCCC1=CC(=O)CC2 (stereo not drawn)
[A] false (0)

[Q] Test call for this compound, please: `COc1c2ccccc2c(OC)c2[nH]c(=O)ccc12`
[A] true (1)

---

Field: growth. Provide a value for each of the compounds that follow.
- Tested on: NCI-H460 lung
- measurementDescription: NCI-60 one-dose screen, 48 h (100 = growth as untreated, 0 = no growth, -100 = all killed)
- measurementParameters: 10 µM unless noted
Compounds without any hit were thinned out: in the full panel of roughly 83,000, 20% have a hit.
Numbers only, in %.

compound	unitsSymbol	growth
O=C(O)c1cccc2c1-c1ccccc1C2=O	%	105
O=C1Nc2ccccc2/C1=C/C(=N/c1nnc(-c2ccc(Cl)cc2)s1)c1ccccc1	%	63.7
C=CC[N+]1(CCO)CCN=C1CCCCCCCCCCCCC (stereo not given)	%	-85.8
CCOC(=O)c1c2c(n3ccc(NC(=O)CCN4CCOCC4)cc13)C(=O)c1ncccc1C2=O	%	11.1

Would you mind listing growth for each of the following compounds?
1. CC(=O)C1=C(O)C=C2Oc3c(C(=O)/C=C/c4cc(Cl)cc(Cl)c4)c(O)c(C)c(O)c3[C@]2(C)C1=O
2. C=C1CC[C@@H]2[C@](C)(COC(C)=O)[C@H](OC(C)=O)CC[C@@]2(C)[C@@H]1CC(NCc1ccc(F)cc1)C1=CCOC1=O (stereo not given in full)
3. O=C1C=CC(=O)c2c1nc1n2CCCC1
4. CC(=O)O[C@H]1CC[C@]2(C)[C@H]3CC[C@@H]4[C@H]5[C@H](C(C)C)CC[C@]5(C(=O)OCC(CO)(CO)N=C(N)N)CC[C@@]4(C)[C@]3(C)CC[C@H]2C1(C)C

[A]
1: -5.02; 2: 55.2; 3: 24.6; 4: -32.4
